tested on: NEK3; conditions: concentration: 1 μM, replicates: in singlicate; n = 1;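 note: KINOMEscan kinase panel screen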
Please mark Satisfied if the recorded %Inh is equal to or greater than 10%, and Not satisfied if it falls below.

Please tell me: is the compound Cc1cccc(-c2cc(-c3c[nH]nc3-c3ccccn3)ccn2)c1 [GW679395] at or over 10% in terms of %Inh?
Not satisfied

Please tell me: is the compound CN(C)c1cc(-c2ccc3c(N)n[nH]c3c2)nc(N)n1 [GSK2219329] at or over 10% in terms of %Inh?
Not satisfied

Please tell me: is the compound OCCCNc1nccc(-c2c(-c3cccc(C(F)(F)F)c3)nn3cc(C(F)(F)F)ccc23)n1 [GW630813] at or over 10% in terms of %Inh?
Not satisfied

Please tell me: is the compound CN1C(=O)C(Nc2cc(Cl)c(O)c(Cl)c2)=C(c2ccc(Cl)cc2)C1=O [SB-404321] at or over 10% in terms of %Inh?
Satisfied

Please tell me: is the compound Cl.c1ccc(Cn2cnc3cc(Nc4ncnc5ccccc45)ccc32)cc1 [GW272142] at or over 10% in terms of %Inh?
Not satisfied

Please tell me: is the compound O=C1NC(=O)C(c2ccccc2)=C1Nc1cccc(O)c1 [SB-390534] at or over 10% in terms of %Inh?
Satisfied

Please tell me: is the compound COc1ccc(-c2cc3c(C)nc(N)nc3n([C@H]3CC[C@H](O)CC3)c2=O)cn1 at or over 10% in terms of %Inh?
Satisfied

Please tell me: is the compound Cc1ccc(Oc2ccc(Nc3ncnc4cc[nH]c34)cc2C)cn1 at or over 10% in terms of %Inh?
Satisfied

Please tell me: is the compound Cc1cc(Nc2nc(-c3cccc(C)n3)nc3ccccc23)ccn1 [GW872411] at or over 10% in terms of %Inh?
Satisfied

Please tell me: is the compound Nc1ncnc2c1ncn2-c1ccc(Cl)cc1 [AH2635] at or over 10% in terms of %Inh?
Not satisfied

Please tell me: is the compound COC(=O)c1c(-c2ccccc2)c2cc(Br)ccc2c(=O)n1Cc1ccc(NC(=O)CCC(=O)O)cc1 at or over 10% in terms of %Inh?
Satisfied

Please tell me: is the compound O=C(Nc1n[nH]c2nc(-c3ccccc3)c(Cl)cc12)C1CC1 [SB-734909] at or over 10% in terms of %Inh?
Satisfied

Please tell me: is the compound COc1cc(Nc2nccc(N3CCC(NC(=O)C4COc5ccccc5O4)C3)n2)cc(OC)c1OC (stereo not drawn) [GSK1379761] at or over 10% in terms of %Inh?
Satisfied

Please tell me: is the compound COc1ccc(-n2cnc3c(N)ncnc32)cc1 [SKF-97236] at or over 10% in terms of %Inh?
Not satisfied

Please tell me: is the compound CCC(=O)c1c(-c2ccccc2)c2cc(Cl)ccc2c(=O)n1Cc1cc(C(=O)NC2CC2)n(C)n1 at or over 10% in terms of %Inh?
Satisfied

Please tell me: is the compound O=C(NCCNc1ccnc(Nc2ccc(F)cc2)n1)Nc1ccc2c(c1)OCO2 [GSK1379882] at or over 10% in terms of %Inh?
Satisfied

Please tell me: is the compound COc1cc2nccc(Nc3ccc(OCc4ccc(NC(C)=O)cc4)cc3)c2cc1OC.Cl [GW440135] at or over 10% in terms of %Inh?
Not satisfied

Please tell me: is the compound Fc1cccc(CSc2nnc(-c3ccc4c(c3)CCO4)o2)c1 at or over 10% in terms of %Inh?
Satisfied

Please tell me: is the compound C[C@@H]1CC[C@H](C(=O)NC2CCCCC2)CN1c1cc(-c2ccc3c(N)n[nH]c3c2)nc(N)n1 [GSK2291363] at or over 10% in terms of %Inh?
Satisfied

Please tell me: is the compound O=C(Nc1n[nH]c2nc(-c3ccccc3)c(Br)cc12)C1CC1 [SB-708998] at or over 10% in terms of %Inh?
Not satisfied

Please tell me: is the compound CCc1ccc(-c2ccc3c(c2)-c2nn(C)cc2S(=O)(=O)N3C)cc1 at or over 10% in terms of %Inh?
Satisfied

Please tell me: is the compound COc1cc(OC)cc(-c2cc3cnc(N)nc3nc2NC(=O)NC(C)(C)C)c1 at or over 10% in terms of %Inh?
Satisfied

Please tell me: is the compound Nc1ncnc2c1ncn2-c1cccc(F)c1 [SKF-97560] at or over 10% in terms of %Inh?
Satisfied

Please tell me: is the compound Nc1n[nH]c2ncc(-c3ccccc3)cc12 [SB-517081] at or over 10% in terms of %Inh?
Satisfied

Please tell me: is the compound COC(=O)c1c(-c2ccccc2)c2cc(Br)ccc2c(=O)n1Cc1ccc(S(C)(=O)=O)cc1 at or over 10% in terms of %Inh?
Satisfied

Please tell me: is the compound CCCC(=O)Nc1n[nH]c2ncc(-c3cccc4ccccc34)cc12 [SB-642057] at or over 10% in terms of %Inh?
Satisfied

Please tell me: is the compound COc1cc2ncn(-c3cc(OCc4ccncc4Br)c(C(N)=O)s3)c2cc1OC [GW854278] at or over 10% in terms of %Inh?
Satisfied

Please tell me: is the compound CCn1c(-c2ccoc2)nc2cnccc21 [SB-733887] at or over 10% in terms of %Inh?
Satisfied

Please tell me: is the compound Cl.NS(=O)(=O)c1cccc(Nc2cc(-c3ccc(F)cc3)n[nH]2)c1 [GW824645] at or over 10% in terms of %Inh?
Satisfied

Please tell me: is the compound Nc1nc(-c2ccccc2F)c(-c2ccnc3ccccc23)s1 [GW560459] at or over 10% in terms of %Inh?
Not satisfied

Please tell me: is the compound COc1cccc(C2=C(N(C)c3ccccc3)C(=O)NC2=O)c1 [SB-334865] at or over 10% in terms of %Inh?
Satisfied

Please tell me: is the compound CCC(=O)c1c(-c2ccccc2)c2cc(Cl)ccc2c(=O)n1Cc1ccc(C(=O)O)cc1 at or over 10% in terms of %Inh?
Satisfied

Please tell me: is the compound COc1cccc(-n2cnc3c(N)ncnc32)c1 [SKF-97416] at or over 10% in terms of %Inh?
Satisfied

Please tell me: is the compound COc1cc(Nc2ccnc3ccc(C(F)(F)F)cc23)cc(OC)c1OC [GW577382] at or over 10% in terms of %Inh?
Not satisfied

Please tell me: is the compound COc1ccc(-c2coc3ccc(-c4nnc(SCc5cccc(C#N)c5)o4)cc23)cc1 at or over 10% in terms of %Inh?
Not satisfied

Please tell me: is the compound Cc1c(Cn2c(C)nn3c(=O)cc(N4CCO[C@H](C)C4)nc23)cccc1C(F)(F)F [GSK2373690] at or over 10% in terms of %Inh?
Not satisfied

Cited source for all entries: paper PMC5540273
